meta.source: PubChem BioAssay (Tox21)

Assay: qHTS assay to test for compound auto fluorescence at 535 nm (green) in HEK293 cells (AID 720680)
Conditions: green autofluorescence 485/535 nm; series mostly up to 46 µM
Active and inactive are the calls of the source. Calls follow the shape of the dose curve; as a rule, active = well fitted curve in the direction sought with a large enough effect in the repeat runs; inconclusive = weak or mixed curves; inactive = flat fitted curve, though single readings scatter.
Recorded Endpoint: outcome

Solved cases below.
Compound | outcome
NC(=O)Oc1ccc(Cc2ccccc2)cc1 | inactive
N[C@H](CCC(=O)O)C(=O)O | inactive
CCCCCC(O)/C=C/C=O (stereo unspecified) | inactive
CCCCCCCCCCCCCCCCCCCCCC(=O)Nc1ccn([C@@H]2O[C@H](CO)[C@@H](O)[C@@H]2O)c(=O)n1 | inactive

Hi! Can you tell me outcome for each of these compounds?
1. C[C@]12CC[C@@H]3c4ccc(OS(=O)(=O)O)cc4CC[C@H]3[C@@H]1CCC2=O
2. COc1ccc(CCNC[C@H](O)c2ccc(O)cc2)cc1OC

**A:**
1. inactive
2. inactive

---

Assay: qHTS assay for small molecule agonists of the p53 signaling pathway - cell viability (AID 651633); also: nearly all actives have a fitted effect of over 30% in size
Conditions: p53RE-bla HCT-116 viability, ATP luminescence, 16 h; series mostly up to 83.3 µM
Records with an inconclusive call do not appear. Activity calls are given as the source filed them. Calls follow the shape of the full dose curve.
Pick one: YES (active), NO (inactive)

Compound | Group
CCC(C)(C)OC(=O)N[C@@H](Cc1c[nH]c2ccccc12)C(=O)N[C@@H](CCSC)C(=O)N[C@@H](CC(=O)O)C(=O)N[C@@H](Cc1ccccc1)C(N)=O | NO
CCOC(=O)C1=C[C@@H](OC(CC)CC)[C@H](NC(C)=O)[C@@H](N)C1 | NO
CCCC1C(=O)N2C(N(C)C)=Nc3ccc(C)cc3N2C1=O (configuration not stated) | NO
C=C1C(=C/C=C2\CCC[C@]3(C)[C@@H]([C@H](C)CCCC(C)(C)O)CC[C@@H]23)C[C@@H](O)C[C@@H]1O | YES
CC(O)CN(C)C (configuration not stated) | NO
CS(=O)(=O)c1ccc(C2=C(c3ccccc3)C(=O)OC2)cc1 | NO
O=C(CCCN1CCC(C(=O)c2ccc(F)cc2)CC1)c1ccc(F)cc1 | NO
CC(C)CN(C[C@@H](O)[C@H](Cc1ccccc1)NC(=O)O[C@H]1CO[C@H]2OCC[C@H]21)S(=O)(=O)c1ccc(N)cc1 | NO

**Q:** I would be grateful if you could indicate the recorded call for "O=C(O)c1nc(=O)[nH]c(=O)[nH]1" .
**A:** NO

**Q:** Another compound: CCN(CC)CCCC(C)Nc1cc(/C=C/c2ccccc2Cl)nc2cc(Cl)ccc12 (configuration not stated)
**A:** NO

**Q:** Another compound: CC(CCc1ccc(O)cc1)NCC(O)c1ccc(O)cc1 (configuration not stated)
**A:** NO

**Q:** Another compound: O=C1O[C@H]2[C@H](O)[C@@H]1OC(O)[C@H]2O (some centres not stated)
**A:** NO

**Q:** Another compound: "O=C1CCC(=O)N1CO"
**A:** NO

---

Biological target: Peroxisome proliferator-activated receptor gamma (Homo sapiens) (UniProt P37231)
Sequence (P37231 whole entry, looked up): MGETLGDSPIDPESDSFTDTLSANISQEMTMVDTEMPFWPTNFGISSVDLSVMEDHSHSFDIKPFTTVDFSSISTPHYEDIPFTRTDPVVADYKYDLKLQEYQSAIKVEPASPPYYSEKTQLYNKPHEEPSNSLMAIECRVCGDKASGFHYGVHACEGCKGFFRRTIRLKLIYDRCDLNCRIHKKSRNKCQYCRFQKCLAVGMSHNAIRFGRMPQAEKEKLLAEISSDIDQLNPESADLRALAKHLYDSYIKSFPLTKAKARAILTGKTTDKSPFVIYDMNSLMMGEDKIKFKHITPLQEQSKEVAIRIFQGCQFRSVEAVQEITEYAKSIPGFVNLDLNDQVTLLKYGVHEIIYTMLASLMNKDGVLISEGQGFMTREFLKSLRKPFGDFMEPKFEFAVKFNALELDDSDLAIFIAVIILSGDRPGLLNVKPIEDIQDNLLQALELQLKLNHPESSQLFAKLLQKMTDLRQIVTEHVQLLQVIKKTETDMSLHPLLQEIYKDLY
Assay: qHTS assay to identify small molecule agonists of the peroxisome proliferator-activated receptor gamma (PPARg) signaling pathway (AID 743094)
Conditions: HEK293H PPARg-UAS-bla, beta-lactamase FRET ratio, 17 h; series mostly up to 57 µM
Text: U.S. Tox21 Program National Center for Advancing Translational Sciences [NCATS] NIH Chemical Genomics Center [NCGC] U.S. Environmental Protection Agency [EPA] National Institutes of Environmental Health Sciences [NIEHS] National Toxicology Program [NTP] U.S. Food and Drug Administration [FDA] […]
Inconclusive results are not listed. The source made the active and inactive calls. Calls come from the whole dose curve; as a rule, active = well fitted activation curve with a large enough effect in the signal ratio in the repeat runs (not every such curve was filed as active); inconclusive = weak or mixed curves, or effect the other way; inactive = no such curve, though single readings can be large or run the other way; the % refers to the signal ratio.
Recorded Endpoint: outcome

Solved cases below.
Molecule | outcome
CCCCCCCCCCCCCCCCCCCCCCO | inactive
COc1ccc(C2NC(=S)N3C(c4ccc(OC)c(OC)c4)NC(=S)N23)cc1OC (stereo unspecified) | inactive
CCCCC(C)(O)C/C=C/[C@H]1[C@H](O)CC(=O)[C@@H]1CCCCCCC(=O)OC (stereo partly specified) | inactive
CCN(CC)CCC(=O)N1c2ccccc2Sc2ccc(C(F)(F)F)cc21 | inactive
CC#CCC(C)[C@H](O)/C=C/[C@@H]1[C@H]2C/C(=C/CCCC(=O)O)C[C@H]2C[C@H]1O (stereo partly specified) | inactive
CC1(C)S[C@@H]2[C@H](NC(=O)C(C(=O)O)c3ccsc3)C(=O)N2[C@H]1C(=O)O (stereo partly specified) | inactive

Hi! Can you tell me outcome for each of these molecules?
1. CCCCCCCCCCCCCCCCCC(=O)OCC(C)O (stereo unspecified)
2. O=C(O)CC/C=C\CC[C@@H]1[C@@H](N2CCCCC2)[C@@H](O)C[C@@H]1OCc1ccc(-c2ccccc2)cc1
3. CC(C)(C)CC(=O)OCC(=O)[C@@]12OC(C)(C)O[C@@H]1C[C@H]1[C@@H]3CCC4=CC(=O)C=C[C@]4(C)[C@@]3(F)[C@@H](O)C[C@@]12C
4. COc1cc(C[C@@H]2NCCc3cc(O)c(O)cc32)cc(OC)c1OC
5. NC[C@@H]1O[C@H](O[C@H]2[C@@H](O)[C@H](O[C@@H]3[C@@H](O)[C@H](N)C[C@H](N)[C@H]3O[C@H]3O[C@H](CO)[C@@H](O)[C@H](O)[C@H]3N)O[C@@H]2CO)[C@H](N)[C@@H](O)[C@@H]1O

**A:**
inactive
inactive
inactive
inactive
inactive
